Value source: ChEMBL document CHEMBL1275417

- EXPERIMENTAL_TARGET: DNA gyrase (Escherichia coli)
- ASSAY_PROTOCOL: Inhibition of Escherichia coli JM109 DNA gyrase assessed as DNA triple helix formation by supercoiling assay
ASSAY_ENDPOINT: IC50 (nM)

COMPOUND_STRING | VALUE_MEASURED
CO[C@@H]1[C@@H](OC(=O)c2ccc(C)[nH]2)[C@@H](O)[C@H](Oc2ccc3c(O)c(NC(=O)c4ccc(SC)cc4)c(=O)oc3c2Cl)OC1(C)C | 20
C=CCc1cc(C(=O)Nc2c(O)c3ccc(O[C@@H]4OC(C)(C)[C@H](OC)[C@@H](OC(=O)c5ccc(C)[nH]5)[C@H]4O)c(C)c3oc2=O)ccc1O | 34
COc1cc(C(=O)Nc2c(O)c3ccc(O[C@@H]4OC(C)(C)[C@H](OC)[C@@H](OC(=O)c5ccc(C)[nH]5)[C@H]4O)c(C)c3oc2=O)ccc1O | 25
